The reported numbers originate from patent US20120093811A1.

The following binders are listed with their measured pKd values.
- system_under_test: T1, Source 1 VEGF-D, mature dimeric recombinant human VEGF-D (CSIRO) (human, UniProt O43915 89-205)
- T1 construct: Whole entry named; also called Source 1 VEGF-D dimer; VEGF-D dimer
- T1 sequence: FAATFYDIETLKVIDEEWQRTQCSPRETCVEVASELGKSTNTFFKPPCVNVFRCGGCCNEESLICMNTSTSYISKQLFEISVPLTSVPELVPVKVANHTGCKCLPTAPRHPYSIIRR
- test: SPR Protocol A: IgG captured by anti-human Fc, VEGF-D dimer as analyte
Friendly reminder that pKd comes from taking -log10 of the concentration in mol/L.

The following binders have reported results that may help.
binder: Ig-1A, humanized IgG reformatted from scFv 1A (antibody, V domains shown, IgG made in mammalian cells; also called humanized Ig-1A) VH: QVQLVQSGAEVKQPGASVKVSCKASGYTFTGYNMYWVRQAPGQGLEWMGYIDPYNGDTTYNQKFKGRVTMTTDTSTSTAYMELRSLRSDDTAVYYCARTSYYGGMDYWGRGTLVTVAS VL: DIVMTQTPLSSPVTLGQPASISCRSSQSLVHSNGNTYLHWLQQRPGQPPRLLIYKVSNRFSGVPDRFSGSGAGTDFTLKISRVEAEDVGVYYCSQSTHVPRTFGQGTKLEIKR
readout_kind: pKd
readout_number: 9.16

binder: humanized IgG antibody derived from clone HX28 (antibody, V domains shown, IgG) VH: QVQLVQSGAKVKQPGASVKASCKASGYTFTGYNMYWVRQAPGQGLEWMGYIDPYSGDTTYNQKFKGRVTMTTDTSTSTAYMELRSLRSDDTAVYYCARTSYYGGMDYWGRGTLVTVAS VL: DIVMTQTPLSSPVTLGQPASISCRSSQSLVHSNGNTYLHWLQQRPGQPPRLLIYKVSNRFSGVPGRFSGSGAGTDFTLKISRVEAEDVGVYYCSQSTHVPRTFGQGTKLEIKR
readout_kind: pKd
readout_number: 9.42

Now examine the next entry.
Request: Look up pKd for this binder: humanized IgG antibody derived from clone DI26 (antibody, V domains shown, IgG) VH: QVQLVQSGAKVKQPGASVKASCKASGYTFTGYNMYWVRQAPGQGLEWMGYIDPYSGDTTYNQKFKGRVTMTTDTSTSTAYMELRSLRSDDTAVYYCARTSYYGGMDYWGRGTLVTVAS VL: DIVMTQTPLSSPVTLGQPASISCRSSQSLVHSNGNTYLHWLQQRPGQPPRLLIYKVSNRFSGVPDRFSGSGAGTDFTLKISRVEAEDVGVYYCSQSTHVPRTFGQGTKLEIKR
Response: 9.16
